- EXPERIMENT: Summary of the strongest expressions over the administration routes
- PARTICULARS: strongest level of the three administrations
PROPERTY_LABEL: Summary of the strongest expressions

Here is how some compounds turned out for Summary of the strongest expressions.
- COMPOUND: "CCC/C=C\\C/C=C\\C/C=C\\C/C=C\\C/C=C\\C/C=C\\CCC(=O)OCCCCCCOP(=O)(NCCCN1CCN(CCCN(CCCCCCCCCCCC)CCCCCCCCCCCC)CC1)OCCCCCCOC(=O)CC/C=C\\C/C=C\\C/C=C\\C/C=C\\C/C=C\\C/C=C\\CCC [PL61]"
  PROPERTY_LABEL: "Summary of the strongest expressions"
  OBS_VALUE: "C (C: ≥0.1 and <1)"
- COMPOUND: "CCCCC/C=C\\C/C=C\\CCCCCCCCOP(=O)(NCCCN(CCCCCCCCCCCC)CCc1ccc(CCN(CCCCCCCCCCCC)CCCCCCCCCCCC)cc1)OCCCCCCCC/C=C\\C/C=C\\CCCCC [PL22]"
  PROPERTY_LABEL: "Summary of the strongest expressions"
  OBS_VALUE: "C (C: ≥0.1 and <1)"
- COMPOUND: "CCCCCCCCCCCCN(CCCCCCCCCCCC)CCCN1CCN(CCCNP(=O)(OCCCCCCCCOC(=O)C(CC)CCCCCC)OCCCCCCCCOC(=O)C(CC)CCCCCC)CC1 (centres unmarked) [PL57]"
  PROPERTY_LABEL: "Summary of the strongest expressions"
  OBS_VALUE: "A (A: ≥2)"
- COMPOUND: "CCCCC/C=C\\C/C=C\\CCCCCCCCOP(=O)(NCCCN1CCN(CCCN(CCCCCCC(=O)OC(CCCCCCCC)CCCCCCCC)CCCCCCC(=O)OC(CCCCCCCC)CCCCCCCC)CC1)OCCCCCCCC/C=C\\C/C=C\\CCCCC [PL28]"
  PROPERTY_LABEL: "Summary of the strongest expressions"
  OBS_VALUE: "A (A: ≥2)"

# evaluate next
QUERY: // query Summary of the strongest expressions value for entry CCCCCCCCCCCCN(CCCCCCCCCCCC)CCCN1CCN(CCCNP(=O)(OCCCCCCCC(=O)OC(CCCCCCCC)CCCCCCCC)OCCCCCCCC(=O)OC(CCCCCCCC)CCCCCCCC)CC1 [PL31]
RESULT: A (A: ≥2)

* * *

- EXPERIMENT: Summary of the strongest expressions over the administration routes
- PARTICULARS: strongest level of the three administrations
PROPERTY_LABEL: Summary of the strongest expressions

Here is how some compounds turned out for Summary of the strongest expressions.
- COMPOUND: "CCCCC/C=C\\C/C=C\\CCCCCCCCOP(=O)(NCCCN(CCCN(CC(O)CCCCCCCCCC)CC(O)CCCCCCCCCC)CC(O)CCCCCCCCCC)OCCCCCCCC/C=C\\C/C=C\\CCCCC (centres unmarked)"
  Summary of the strongest expressions: "A (A: ≥2)"
- COMPOUND: "CCCCCCCCCCC(CCCCCCCCCC)CN(CCCN1CCN(CCCNP(=O)(OCCCCCCCC(=O)OC(CCCCCCCC)CCCCCCCC)OCCCCCCCC(=O)OC(CCCCCCCC)CCCCCCCC)CC1)CC(CCCCCCCCCC)CCCCCCCCCC"
  Summary of the strongest expressions: "C (C: ≥0.1 and <1)"
- COMPOUND: "CCCCCCCCCCC(O)CN(CCCN1CCN(CCCNP(=O)(OCCCCCCCCOC(=O)C(CC)CCCC)OCCCCCCCCOC(=O)C(CC)CCCC)CC1)CC(O)CCCCCCCCCC (centres unmarked)"
  Summary of the strongest expressions: "B (B: ≥1 and <2)"
- COMPOUND: "CCCCCCCCCCCCN(CCCCCCCCCCCC)CCCN1CCN(CCCNP(=O)(OCCCCCCOC(=O)C(CCCCCC)CCCCCCCC)OCCCCCCOC(=O)C(CCCCCC)CCCCCCCC)CC1 (centres unmarked)"
  Summary of the strongest expressions: "A (A: ≥2)"
- COMPOUND: "CCCCC/C=C\\C/C=C\\CCCCCCCCOP(=O)(NCCCN1CCN(CCCN(CC(O)CCCCCCCCCC)CC(O)CCCCCCCCCC)CC1)OCCCCCCCC/C=C\\C/C=C\\CCCCC (centres unmarked)"
  Summary of the strongest expressions: "A (A: ≥2)"
- COMPOUND: "CCCCC/C=C\\C/C=C\\CCCCCCCCOP(=O)(NCCCN1CCN(CCCNCC(CCCCCC)CCCCCCCC)CC1)OCCCCCCCC/C=C\\C/C=C\\CCCCC (centres unmarked)"
  Summary of the strongest expressions: "C (C: ≥0.1 and <1)"
- COMPOUND: "CCCCC/C=C\\C/C=C\\CCCCCCCCOP(=O)(NCCCN(CCCCCCCCCCCC)CCc1ccc(CCN(C)C)cc1)OCCCCCCCC/C=C\\C/C=C\\CCCCC"
  Summary of the strongest expressions: "B (B: ≥1 and <2)"
- COMPOUND: "CCCCC/C=C\\C/C=C\\CCCCCCCCOP(=O)(NCCN1CCN(CCOC(=O)CCN(CCCCCCCCCCCC)CCCCCCCCCCCC)CC1)OCCCCCCCC/C=C\\C/C=C\\CCCCC"
  Summary of the strongest expressions: "A (A: ≥2)"
- COMPOUND: "CCCCC/C=C\\C/C=C\\CCCCCCCCOP(=O)(NCCN(CCCCCCCCCCCC)CCCN(C)C)OCCCCCCCC/C=C\\C/C=C\\CCCCC"
  Summary of the strongest expressions: "A (A: ≥2)"
- COMPOUND: "CCCCC/C=C\\C/C=C\\CCCCCCCCOP(=O)(NCCCN(CC(O)CCCCCCCCCC)CC(O)CN(CC(O)CCCCCCCCCC)CC(O)CCCCCCCCCC)OCCCCCCCC/C=C\\C/C=C\\CCCCC (centres unmarked)"
  Summary of the strongest expressions: "C (C: ≥0.1 and <1)"

# evaluate next
QUERY: // query Summary of the strongest expressions value for entry CCCCC/C=C\C/C=C\C/C=C\CCCCCOP(=O)(NCCCN1CCN(CCCN(CCCCCCCCCCCC)CCCCCCCCCCCC)CC1)OCCCCC/C=C\C/C=C\C/C=C\CCCCC
RESULT: A (A: ≥2)
